- ASSAY TARGET: NEP (Rattus norvegicus)
- Construct: Pre-cannulated male Sprague-Dawley rats (3 per compound evaluated) between 8 and 10 weeks of age were obtained from Harlan Laboratories; from tissue; host or cells: whole animal: conscious male Sprague-Dawley rats (Harlan Laboratories)
- Sequence (P07861 whole entry): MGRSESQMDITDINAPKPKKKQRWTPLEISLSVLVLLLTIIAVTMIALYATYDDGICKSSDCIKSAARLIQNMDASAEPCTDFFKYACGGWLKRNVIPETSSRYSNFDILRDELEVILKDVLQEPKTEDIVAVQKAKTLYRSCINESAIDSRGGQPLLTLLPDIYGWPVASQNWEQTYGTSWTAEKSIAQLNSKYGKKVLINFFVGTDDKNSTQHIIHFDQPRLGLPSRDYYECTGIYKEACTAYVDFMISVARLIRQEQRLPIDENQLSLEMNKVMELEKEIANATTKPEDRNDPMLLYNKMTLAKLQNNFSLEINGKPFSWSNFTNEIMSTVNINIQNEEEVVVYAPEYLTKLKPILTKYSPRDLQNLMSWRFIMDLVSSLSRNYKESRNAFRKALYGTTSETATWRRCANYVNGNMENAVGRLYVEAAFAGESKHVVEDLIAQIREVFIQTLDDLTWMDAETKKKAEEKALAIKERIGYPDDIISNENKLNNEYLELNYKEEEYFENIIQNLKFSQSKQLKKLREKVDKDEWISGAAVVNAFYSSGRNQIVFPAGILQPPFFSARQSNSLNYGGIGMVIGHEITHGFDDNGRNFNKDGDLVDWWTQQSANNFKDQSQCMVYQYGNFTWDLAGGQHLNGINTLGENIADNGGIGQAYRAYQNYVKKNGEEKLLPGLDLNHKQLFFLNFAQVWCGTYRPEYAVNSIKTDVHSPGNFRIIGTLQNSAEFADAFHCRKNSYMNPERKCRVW
- ASSAY NOTES: PK-PD assay for NEP activity in conscious normotensive Sprague-Dawley rats (plasma cGMP after ANP bolus)
- Assay type: in vivo, male Sprague-Dawley rats
- MEASUREMENT CONTEXT: rat plasma, 3 mg/kg oral, 15 min after IV ANP bolus (30 μg/kg); average of three determinations
EXPERIMENTAL ENDPOINT: cGMP Concentration 24 hours After Dosing Mean (nM)

(P) C[C@H](C[C@@H](Cc1ccc(-c2cc(Cl)ccc2F)cc1)NC(=O)c1cnco1)C(=O)O
(Q) Cc1cnc(C(=O)N[C@H](Cc2ccc(-c3cc(Cl)ccc3F)cc2)C[C@@H](O)C(=O)O)o1
Problem: Could you kindly indicate whether P or Q has the higher cGMP Concentration 24 hours After Dosing Mean value? // output: label of the selected item
Solution: Q

---

- ASSAY NOTES: IV/PO pharmacokinetic study in rats
- Type: in vivo, male Sprague-Dawley rats
- Set-up: concentration or dose not given beside the values
- MEASUREMENT CONTEXT: male, Sprague-Dawley, plasma; rat, PO; read-out: AUClast Mean
EXPERIMENTAL ENDPOINT: AUC(0-t) (ng·h/mL)

(P) CCc1ncc(C(=O)N[C@H](Cc2ccc(-c3cc(Cl)ccc3F)cc2)C[C@@H](C)C(=O)O)o1
(Q) COc1cc(C(=O)N[C@H](Cc2ccc(-c3cc(Cl)ccc3F)cc2)C[C@@H](O)C(=O)O)on1
(R) C[C@H](C[C@@H](Cc1ccc(-c2cc(Cl)ccc2F)cc1)NC(=O)c1cnco1)C(=O)O
Problem: sort_by: AUC(0-t); order: ascending; scope: items listed above API: response body holds the labels in the requested order.
Solution: Q, R, P

---

- ASSAY TARGET: human neprilysin (EC 3.4.24.11; NEP) (Homo sapiens)
- Construct: purchased R&D Systems 1182-ZN
- Sequence (P08473 52-750 limits assumed): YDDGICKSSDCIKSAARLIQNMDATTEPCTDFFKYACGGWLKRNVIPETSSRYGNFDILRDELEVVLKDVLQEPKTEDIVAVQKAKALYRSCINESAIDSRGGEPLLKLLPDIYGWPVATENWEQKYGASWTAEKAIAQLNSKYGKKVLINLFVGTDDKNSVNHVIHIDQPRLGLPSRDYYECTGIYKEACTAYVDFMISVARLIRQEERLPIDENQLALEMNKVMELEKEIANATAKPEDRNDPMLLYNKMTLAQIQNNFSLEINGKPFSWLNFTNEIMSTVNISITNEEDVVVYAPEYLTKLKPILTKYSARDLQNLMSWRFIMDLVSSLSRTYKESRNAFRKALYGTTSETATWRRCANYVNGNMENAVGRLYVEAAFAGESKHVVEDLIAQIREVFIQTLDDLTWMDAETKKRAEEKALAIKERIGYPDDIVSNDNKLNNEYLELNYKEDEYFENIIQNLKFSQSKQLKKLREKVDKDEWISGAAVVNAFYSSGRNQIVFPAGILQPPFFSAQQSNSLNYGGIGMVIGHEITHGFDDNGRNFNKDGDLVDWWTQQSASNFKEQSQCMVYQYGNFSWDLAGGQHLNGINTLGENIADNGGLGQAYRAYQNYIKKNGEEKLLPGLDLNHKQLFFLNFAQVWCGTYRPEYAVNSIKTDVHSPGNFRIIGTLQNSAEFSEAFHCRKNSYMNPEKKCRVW
- ASSAY NOTES: In vitro assay for the quantitation of inhibitor potency at human NEP
- Assay type: biochemical
- MEASUREMENT CONTEXT: recombinant human NEP, fluorogenic peptide substrate 10 μM, 37° C.; read-out: pKi at human NEP (converted)
EXPERIMENTAL ENDPOINT: Ki (nM)

Please review the entries below; each comes with its answer.
{"COMPOUND SMILES": "Cc1cnc(C(=O)N[C@H](Cc2ccc(-c3cc(Cl)ccc3F)cc2)C[C@@H](O)C(=O)O)o1", "ASSAY TARGET": "human neprilysin (EC 3.4.24.11; NEP) (Homo sapiens)", "ENDPOINT UNIT": "nM", "Ki": 0.2}
{"COMPOUND SMILES": "COc1cc(C(=O)N[C@H](Cc2ccc(-c3cc(Cl)ccc3F)cc2)C[C@@H](O)C(=O)O)on1", "ASSAY TARGET": "human neprilysin (EC 3.4.24.11; NEP) (Homo sapiens)", "ENDPOINT UNIT": "nM", "Ki": 0.126}

(a) CCc1ncc(C(=O)N[C@H](Cc2ccc(-c3cc(Cl)ccc3F)cc2)C[C@@H](C)C(=O)O)o1
(b) C[C@H](C[C@@H](Cc1ccc(-c2cc(Cl)ccc2F)cc1)NC(=O)c1cnco1)C(=O)O
Problem: Please let me know which one, a or b , has a lower measured Ki value. // output: label of the selected item
Solution: b
(b: 0.501 nM, a: 0.794 nM)
